Measured values drawn from patent US9744250B2 for this set.

- System: SH-SY5Y neuronal cells
- assay_procedure: Cell viability test in MTT
- Type: cell-based, human
- details: 6 h incubation (+24 h without MPP+), read-out: EC50 (cell survival)
pEC50: −log10 of the molar value.

| molecule | tgt | pEC50 |
| --- | --- | --- |
| C[n+]1ccc(-c2ccccc2)cc1 [MPP+, reference compound] | SH-SY5Y neuronal cells | 3.41 |

###

- assay_procedure: Cell viability test in MTT
- Type: cell-based, human
- details: human, SH-SY5Y neuroblastoma cells, 96 h of incubation, read-out: reduction of cell viability

| compound | cytotoxicity at 96 h |
| --- | --- |
| NS(=O)(=O)c1cc(C(=O)[O-])c(-[n+]2cccc(O)c2)cc1Cl [furosemide pyridinium] | ~60% |
